The origin of these recorded values is ChEMBL document CHEMBL1139079.

Target: Human immunodeficiency virus type 1 integrase (Human immunodeficiency virus 1, UniProt Q7ZJM1)
Sequence (Q7ZJM1 whole entry): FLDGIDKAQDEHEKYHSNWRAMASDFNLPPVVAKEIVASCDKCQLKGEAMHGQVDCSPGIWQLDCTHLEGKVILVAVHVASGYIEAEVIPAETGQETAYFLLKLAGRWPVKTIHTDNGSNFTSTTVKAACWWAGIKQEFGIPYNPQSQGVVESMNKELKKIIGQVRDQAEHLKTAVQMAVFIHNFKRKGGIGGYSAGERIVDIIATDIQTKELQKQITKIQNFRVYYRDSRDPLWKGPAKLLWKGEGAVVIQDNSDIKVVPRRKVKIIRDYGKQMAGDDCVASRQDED
Assay: Inhibition of recombinant HIV1 integrase strand transfer activity
pIC50: −log10 of the molar value.
quantity_kind: pIC50

So what does the record say about pIC50 for "CCOC(=O)C1=C(O)CCC2(C(=O)OC(C)(C)OC2=O)[C@H]1c1ccco1" ?
4.36

(I) COc1cccc([C@@H]2CC(=O)C[C@H](c3ccco3)C23C(=O)OC(C)(C)OC3=O)c1OC
(II) CC1(C)OC(=O)C2(C(=O)O1)[C@@H](c1ccco1)CC(=O)C[C@H]2c1ccccc1
Could you check which of I and II has a smaller value for pIC50? Pick one and reply with its label.
II
(II: 3.88, I: 4.35)

(a) CCOC(=O)C1=C(O)CCC2(C(=O)OC(C)(C)OC2=O)[C@H]1c1ccccc1OC
(b) COc1ccc([C@@H]2CC(=O)C[C@H](c3ccco3)C23C(=O)OC(C)(C)OC3=O)cc1OC
Could you check which of a and b has a smaller value for pIC50? Pick one and reply with its label.
a

(P) CC1(C)OC(=O)C2(C(=O)O1)[C@@H](c1ccco1)CC(=O)C[C@H]2c1c[nH]c2ccccc12
(Q) COc1ccc([C@@H]2CC(=O)C[C@H](c3ccco3)C23C(=O)OC(C)(C)OC3=O)cc1
(R) COc1ccc([C@H]2CC(=O)CCC23C(=O)OC(C)(C)OC3=O)cc1
Hey, quick one: sort these by pIC50, low to high? Put the labels in the requested order and write them down.
R, Q, P
